The measurements presented in this section are drawn from ChEMBL document CHEMBL1149343.

- Test system: MCF7
- runDescription: Cytotoxicity against human MCF7 cell line
- Assay type: functional, cell-based
pIC50: −log10 of the molar value.

compound | measuredTarget | pIC50
Oc1cc2c(cc1O)C(Cc1ccc(-c3ccccc3)cc1)NCC2 (stereo unspecified) | MCF7 | 5.42

====

- Test system: C6
- runDescription: Cytotoxicity against rat C6 glioma cell line
- Assay type: functional, cell-based
pIC50: −log10 of the molar value.
observedProperty: pIC50

molecule | op | measured
O=NN(CCCl)C(=O)NCCCl [CARMUSTINE] | = | 5.03
N[C@@H](Cc1ccc(N(CCCl)CCCl)cc1)C(=O)O [MELPHALAN] | = | 4.90
Oc1ccc(CCNCCc2ccc(-c3ccccc3)cc2)cc1O | = | 5.07
Nc1ccc(CC2NCCc3cc(O)c(O)cc32)cc1 (stereo unspecified) | < | 4.30
COc1cc(C[C@@H]2NCCc3cc(O)c(O)cc32)cc(OC)c1OC [TRETOQUINOL] | < | 4.30
O=C(c1ccccc1)c1ccc(CC2NCCc3cc(O)c(O)cc32)cc1 (stereo unspecified) | = | 5.03
